The reported measurements were obtained from ChEMBL document CHEMBL1961873.

- measured.target: Sphingosine kinase 1 (Homo sapiens);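 note: mean SPHK1 inhibition value reported from the GSK PKIS kinase panel screen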
- experimental.parameters: at 1 µM
quantity.name: inhibition (%)

1. CCn1c(-c2nonc2N)nc2ccncc21    -0.31
2. COc1cc2c(cc1Nc1nc(N3CCc4ccccc43)c3cc[nH]c3n1)N(C(=O)CN(C)C)CC2    -1.12
3. COc1cc(C=NNc2ncnc3c2cnn3-c2ccccc2)ccc1O    -3.84
4. Cc1nnc(-c2ccc(C)c(-c3ccc(C(=O)Nc4cccc(C#N)c4)cc3)c2)o1    0
5. COC(=O)Nc1nc2cc(Oc3ccc(NC(=O)Nc4cccc(C(=O)O)c4)cc3)ccc2[nH]1    -2.52
6. NC(=O)c1cccc(Nc2nccc(Nc3cccc4[nH]ncc34)n2)c1    -1.98
7. COc1cccc(-n2ncc3c(N/N=C/c4cccc(F)c4)ncnc32)c1    -2.05
8. O=C1NC(=O)C(c2ccccc2Cl)=C1Nc1cccc(O)c1    -1.02
9. CCn1c(-c2nonc2N)nc2cncc(C(=O)N3CC[C@H](N)C3)c21    -5.44
10. CCn1c(-c2nonc2N)nc2c(C#CC(C)(C)O)nc(OC[C@@H](N)c3ccccc3)cc21    2.57
11. COc1ccc(-c2nn3ncccc3c2-c2ccnc(Nc3ccc(Cl)c(C(F)(F)F)c3)n2)cc1    -2.15
12. COc1cc(C)c(NC(=O)CN(C)C)cc1Nc1nc(Nc2cccc(F)c2C(N)=O)c2cc[nH]c2n1    -1.23
13. CC1=C(C(=O)Nc2ccc3[nH]ncc3c2)C(c2ccc(F)cc2)NC(=O)N1 (stereo not given)    -2.09
14. CC(=O)Nc1cccc(C#Cc2cncnc2Nc2ccc(OCc3cccc(F)c3)c(Cl)c2)n1    0.51
15. c1cnn2ncc(-c3ccnc(Nc4ccc5c(c4)OCCO5)n3)c2c1    -1.74
16. Nc1ncnc2occ(-c3ccc(NC(=O)Nc4cccc(C(F)(F)F)c4)cc3)c12    -6.26
17. CS(=O)(=O)CCNCc1ccc(-c2ccc3ncnc(Nc4ccc(OCc5ccccc5)c(Cl)c4)c3c2)o1    2.51
18. COc1cc2ncn(-c3cc(O[C@@H](C)c4ccccc4Cl)c(C(N)=O)s3)c2cc1OC    -1.61
19. O=C1NC(=O)C(c2cccc(Cl)c2)=C1Nc1ccc(O)c(Cl)c1    -1.72
20. Nc1nc(-c2ccc3c(c2)C(=Cc2cc(Br)c(O)c(Br)c2)C(=O)N3)cs1    -0.49

----------
inhibition values by entry
- measured.target: Serine/threonine-protein kinase DCLK2 (Homo sapiens) (UniProt Q8N568);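 note: reported value is the mean percent inhibition of DCAMKL2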
- Sequence (Q8N568 whole entry): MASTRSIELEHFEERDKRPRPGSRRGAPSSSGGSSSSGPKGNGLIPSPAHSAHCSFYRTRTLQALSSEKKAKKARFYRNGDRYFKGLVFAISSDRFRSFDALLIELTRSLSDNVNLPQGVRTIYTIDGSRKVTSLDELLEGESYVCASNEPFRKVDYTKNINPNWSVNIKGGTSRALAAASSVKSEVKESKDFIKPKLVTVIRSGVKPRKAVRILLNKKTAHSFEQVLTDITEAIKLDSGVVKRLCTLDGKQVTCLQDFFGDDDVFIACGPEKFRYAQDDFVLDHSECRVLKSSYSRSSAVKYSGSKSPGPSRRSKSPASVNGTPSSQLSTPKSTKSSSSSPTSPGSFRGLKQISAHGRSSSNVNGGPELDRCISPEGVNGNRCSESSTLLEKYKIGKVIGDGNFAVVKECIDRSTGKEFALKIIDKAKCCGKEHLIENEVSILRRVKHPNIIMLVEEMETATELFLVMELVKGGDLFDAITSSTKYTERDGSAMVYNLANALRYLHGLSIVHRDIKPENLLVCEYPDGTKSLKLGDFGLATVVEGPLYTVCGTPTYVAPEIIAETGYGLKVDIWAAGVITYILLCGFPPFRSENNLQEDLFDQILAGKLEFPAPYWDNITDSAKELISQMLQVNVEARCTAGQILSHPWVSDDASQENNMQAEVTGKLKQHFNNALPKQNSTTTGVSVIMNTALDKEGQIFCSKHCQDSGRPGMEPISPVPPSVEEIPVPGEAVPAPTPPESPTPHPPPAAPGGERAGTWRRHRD
- experimental.parameters: at 0.1 µM
quantity.name: inhibition (%)

1. Nc1nc(-c2ccccn2)c(-c2ccc3ncccc3n2)s1    0.14
2. CCn1c(-c2nonc2N)nc2cnc(Oc3cccc(NC(=O)c4ccc(OCCN5CCOCC5)cc4)c3)cc21    0.99
3. CNC(=O)c1cncc(/C=C/c2c(Cl)cccc2Cl)c1    -4.5
4. CN(C)c1cc2c(Nc3ccc4nc(Cc5ccccc5)[nH]c4c3)ncnc2cn1    1.19
5. Cc1nnc(-c2ccc(C)c(-c3ccc(C(=O)Nc4cccc(C#N)c4)cc3)c2)o1    0.99

----------
inhibition values by entry
- measured.target: MAP kinase-interacting serine/threonine-protein kinase 1 (Homo sapiens) (UniProt Q9BUB5)
- experimental.parameters: at 0.1 µM
- Description: GSK_PKIS: MKNK1 mean inhibition at 0.1 uM [Nanosyn]
quantity.name: inhibition (%)

1. CCCN1CCC=C(c2ccc(Nc3nc(Nc4ccccc4C(N)=O)c4cc[nH]c4n3)c(C)c2)C1    2.32
2. COc1cc2c(cc1Nc1nc(N3CCc4ccccc43)c3cc[nH]c3n1)N(C(=O)CN(C)C)CC2    1.09
3. CS(=O)(=O)CCNCc1ccc(-c2ccc3ncnc(Nc4ccc(OCc5ccccc5)c(Cl)c4)c3c2)o1    2.34
4. NC(=O)c1ccc(-c2nc(-c3ccccn3)c(-c3ccc4c(c3)OCO4)[nH]2)cc1    1.26
5. COc1cccc(-n2ncc3c(N/N=C/c4cccc(F)c4)ncnc32)c1    2.81
6. c1cnn2ncc(-c3ccnc(Nc4ccc5c(c4)OCCO5)n3)c2c1    3.95
7. COc1cc(C)c(NC(=O)CN(C)C)cc1Nc1nc(Nc2cccc(F)c2C(N)=O)c2cc[nH]c2n1    1.46
8. CCn1c(-c2nonc2N)nc2cncc(C(=O)N3CCNCC3)c21    2.42
9. NS(=O)(=O)c1ccc(N/N=C2\C(=O)Nc3ccc(C(=O)NCCc4c[nH]cn4)cc32)cc1    2.81

----------
- measured.target: Mitogen-activated protein kinase 9 (Homo sapiens);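 note: values are mean inhibition of JNK2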
- experimental.parameters: at 0.1 µM
quantity.name: inhibition (%)

1) COc1ccc(-c2nn3ncccc3c2-c2ccnc(Nc3ccc(Cl)c(C(F)(F)F)c3)n2)cc1    1.72
2) O=C1NC(=O)C(c2ccccc2Cl)=C1Nc1cccc(O)c1    2.21
3) CCn1c(-c2nonc2N)nc2c(N3CCCC3)nccc21    -4.08
4) NS(=O)(=O)c1cccc(-c2ccc3c(NC(=O)C4CC4)n[nH]c3c2)c1    -7.07
5) CCc1cccc(NC(=O)Nc2ccc(Oc3ccc4nc(NC(=O)OC)[nH]c4c3)cc2)c1    2.67
6) O=C1NC(=O)C(c2ccc(Cl)cc2)=C1Nc1ccc(Cl)c(C(=O)O)c1    0.98
7) O=C(Nc1n[nH]c2nc(-c3ccco3)c(Br)cc12)C1CC1    2.66
8) Cc1cc(O)cc(C)c1/C=C/c1cncc(-c2nn[nH]n2)c1    7.47
9) NS(=O)(=O)c1ccc(N/N=C2\C(=O)Nc3ccc(C(=O)NCCc4c[nH]cn4)cc32)cc1    3.56

----------
- measured.target: Leucine-rich repeat serine/threonine-protein kinase 2 (Homo sapiens) (UniProt Q5S007);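 note: mean percent inhibition of LRRK2 measured in the GSK PKIS kinase inhibitor set screen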
- Sequence (Q5S007 whole entry): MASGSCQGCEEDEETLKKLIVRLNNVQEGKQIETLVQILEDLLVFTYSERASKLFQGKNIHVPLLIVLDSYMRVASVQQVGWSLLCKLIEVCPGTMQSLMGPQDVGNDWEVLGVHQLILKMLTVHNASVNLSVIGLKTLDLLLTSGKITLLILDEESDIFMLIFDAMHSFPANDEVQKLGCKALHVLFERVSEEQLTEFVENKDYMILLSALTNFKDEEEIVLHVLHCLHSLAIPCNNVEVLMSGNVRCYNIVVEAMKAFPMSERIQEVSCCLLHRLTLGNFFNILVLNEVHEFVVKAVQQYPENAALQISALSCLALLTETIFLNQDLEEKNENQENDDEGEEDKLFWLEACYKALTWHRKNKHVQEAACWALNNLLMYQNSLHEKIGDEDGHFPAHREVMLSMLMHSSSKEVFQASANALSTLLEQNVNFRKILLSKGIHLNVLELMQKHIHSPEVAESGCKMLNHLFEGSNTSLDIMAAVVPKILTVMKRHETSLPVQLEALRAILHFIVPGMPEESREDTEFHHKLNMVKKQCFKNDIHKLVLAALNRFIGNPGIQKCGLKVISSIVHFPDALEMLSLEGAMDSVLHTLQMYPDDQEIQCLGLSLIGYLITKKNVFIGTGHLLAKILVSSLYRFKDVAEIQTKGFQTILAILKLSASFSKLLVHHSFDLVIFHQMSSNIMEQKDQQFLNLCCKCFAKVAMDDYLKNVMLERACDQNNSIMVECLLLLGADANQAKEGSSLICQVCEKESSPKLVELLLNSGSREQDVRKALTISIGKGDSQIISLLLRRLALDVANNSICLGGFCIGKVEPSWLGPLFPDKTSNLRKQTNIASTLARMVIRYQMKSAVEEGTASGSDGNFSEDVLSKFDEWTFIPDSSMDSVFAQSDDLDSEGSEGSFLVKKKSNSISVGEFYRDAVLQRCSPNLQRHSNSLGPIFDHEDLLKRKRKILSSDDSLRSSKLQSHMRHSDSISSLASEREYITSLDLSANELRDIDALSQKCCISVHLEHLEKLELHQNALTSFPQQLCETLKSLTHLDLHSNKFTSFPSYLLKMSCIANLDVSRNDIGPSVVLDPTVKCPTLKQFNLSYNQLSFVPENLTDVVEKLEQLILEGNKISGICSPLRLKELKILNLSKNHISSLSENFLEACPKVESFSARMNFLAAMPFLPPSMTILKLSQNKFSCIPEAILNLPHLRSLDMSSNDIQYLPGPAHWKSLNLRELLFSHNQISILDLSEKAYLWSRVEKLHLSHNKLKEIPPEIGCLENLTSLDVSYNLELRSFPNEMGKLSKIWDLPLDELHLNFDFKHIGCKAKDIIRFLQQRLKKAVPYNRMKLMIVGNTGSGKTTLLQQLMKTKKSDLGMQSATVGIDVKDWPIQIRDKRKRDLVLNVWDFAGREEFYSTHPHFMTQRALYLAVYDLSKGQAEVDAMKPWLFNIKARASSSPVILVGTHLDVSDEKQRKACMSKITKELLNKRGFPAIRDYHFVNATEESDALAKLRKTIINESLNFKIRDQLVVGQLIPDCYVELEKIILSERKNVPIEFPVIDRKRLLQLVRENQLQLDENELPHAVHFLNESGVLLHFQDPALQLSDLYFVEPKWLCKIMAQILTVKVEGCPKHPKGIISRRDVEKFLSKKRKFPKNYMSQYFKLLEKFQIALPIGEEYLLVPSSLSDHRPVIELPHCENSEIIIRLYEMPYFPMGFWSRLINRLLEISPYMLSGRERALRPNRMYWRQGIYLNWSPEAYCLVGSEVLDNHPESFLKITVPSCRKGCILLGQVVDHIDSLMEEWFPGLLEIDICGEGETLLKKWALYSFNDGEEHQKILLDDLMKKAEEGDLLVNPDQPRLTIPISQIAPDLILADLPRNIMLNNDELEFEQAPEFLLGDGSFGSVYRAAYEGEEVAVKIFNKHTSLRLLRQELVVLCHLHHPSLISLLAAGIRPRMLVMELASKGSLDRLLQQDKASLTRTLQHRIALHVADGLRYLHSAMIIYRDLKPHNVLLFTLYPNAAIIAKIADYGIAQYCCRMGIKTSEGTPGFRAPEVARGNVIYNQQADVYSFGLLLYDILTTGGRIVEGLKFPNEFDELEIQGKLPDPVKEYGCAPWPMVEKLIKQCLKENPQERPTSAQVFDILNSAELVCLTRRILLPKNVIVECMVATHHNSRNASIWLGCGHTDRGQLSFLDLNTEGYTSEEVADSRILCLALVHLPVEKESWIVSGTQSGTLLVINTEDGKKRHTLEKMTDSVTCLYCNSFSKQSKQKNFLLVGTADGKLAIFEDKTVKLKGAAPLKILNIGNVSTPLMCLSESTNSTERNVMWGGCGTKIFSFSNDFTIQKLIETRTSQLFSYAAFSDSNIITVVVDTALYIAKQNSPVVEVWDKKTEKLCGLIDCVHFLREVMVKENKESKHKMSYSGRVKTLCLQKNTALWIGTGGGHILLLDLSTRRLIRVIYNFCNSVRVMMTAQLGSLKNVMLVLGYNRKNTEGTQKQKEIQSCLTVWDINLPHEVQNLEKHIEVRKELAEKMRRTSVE
- experimental.parameters: at 1 µM
quantity.name: inhibition (%)

1. COc1ccc(-c2coc3ncnc(N)c23)cc1    6.4
2. NS(=O)(=O)c1cccc(-c2ccc3c(NC(=O)C4CC4)n[nH]c3c2)c1    1.25
3. Cn1cc(C=C2C(=O)Nc3cccnc32)c2ccccc21    20.8
4. CS(=O)(=O)CCNCc1nc(-c2ccc3ncnc(Nc4ccc(F)c(Cl)c4)c3c2)cs1    5.82
5. O=C1NC(=O)C(c2ccccc2Cl)=C1Nc1cccc(O)c1    13.2
6. Nc1nc(-c2ccc3c(c2)C(=Cc2cc(Br)c(O)c(Br)c2)C(=O)N3)cs1    14.2
7. Fc1cccc(COc2ccc(Nc3ncnc4sc(-c5cccs5)cc34)cc2Cl)c1    4.84
8. CCn1c(-c2nonc2N)nc2c(C#CC(C)(C)O)nc(OC[C@@H](N)c3ccccc3)cc21    8.46
9. O=C1NC(=O)C(N2CCc3ccccc32)=C1c1ccc(Cl)cc1    8.75
10. COc1ccc(COc2ccc(Cc3cnc(N)nc3N)cc2OC)cc1    5.38

----------
- measured.target: 5'-AMP-activated protein kinase catalytic subunit alpha-1 (Homo sapiens) (UniProt Q13131);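 note: enzyme tested as the AMPK alpha1 beta1 gamma1 complex, values reported as mean percent inhibition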
- Sequence (Q13131 whole entry, looked up): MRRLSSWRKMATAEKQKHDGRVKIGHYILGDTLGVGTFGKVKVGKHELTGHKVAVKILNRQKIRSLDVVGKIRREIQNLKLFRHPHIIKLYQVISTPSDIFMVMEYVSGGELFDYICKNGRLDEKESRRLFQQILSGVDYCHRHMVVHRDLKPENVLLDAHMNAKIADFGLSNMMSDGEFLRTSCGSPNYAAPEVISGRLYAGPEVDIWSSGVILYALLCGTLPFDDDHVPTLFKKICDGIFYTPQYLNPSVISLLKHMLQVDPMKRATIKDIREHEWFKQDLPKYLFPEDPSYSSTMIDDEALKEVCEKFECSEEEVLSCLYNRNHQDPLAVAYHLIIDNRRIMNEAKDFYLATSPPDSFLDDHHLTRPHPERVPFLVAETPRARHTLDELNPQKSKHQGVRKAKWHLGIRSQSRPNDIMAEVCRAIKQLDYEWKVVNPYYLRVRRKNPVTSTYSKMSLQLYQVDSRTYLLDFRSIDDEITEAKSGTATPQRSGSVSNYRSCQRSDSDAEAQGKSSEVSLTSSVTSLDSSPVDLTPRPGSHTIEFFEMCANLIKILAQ
- experimental.parameters: at 0.1 µM
- Description: GSK_PKIS: AMPKA1 (A1B1G1) mean inhibition at 0.1 uM [Nanosyn]
quantity.name: inhibition (%)

1. CC1=C(C(=O)Nc2ccc3[nH]ncc3c2)C(c2ccc(F)cc2)NC(=O)N1 (stereo not drawn)    3.82
2. Cc1cccc(-c2n[nH]cc2-c2ccc3ncccc3n2)n1    1.82
3. CCn1c(-c2nonc2N)nc2c(C#CC(C)(C)O)nc(OC[C@@H](N)c3ccccc3)cc21    26.6

----------
inhibition values by entry
- Tested on: Mast/stem cell growth factor receptor Kit (Homo sapiens), P10721 [T670I]
- experimental.parameters: at 0.1 µM
quantity.name: inhibition (%)

1. CCn1c(-c2nonc2N)nc2c(N3CCCC3)nccc21    -1.62
2. CN(C)c1cc2c(Nc3ccc4nc(Cc5ccccc5)[nH]c4c3)ncnc2cn1    2.88
3. CCn1c(-c2nonc2N)nc2c(C#CC(C)(C)O)nc(CN3CCCC3)cc21    -0.82
4. NS(=O)(=O)c1cccc(-c2ccc3c(NC(=O)C4CC4)n[nH]c3c2)c1    -3.61
5. CS(=O)(=O)CCNCc1ccc(-c2ccc3ncnc(Nc4ccc(OCc5ccccc5)c(Cl)c4)c3c2)o1    1.42
6. Fc1cccc(COc2ccc(Nc3ncnc4sc(-c5cccs5)cc34)cc2Cl)c1    1.75
7. CC1=C(C(=O)Nc2ccc3[nH]ncc3c2)C(c2ccc(F)cc2)NC(=O)N1 (stereo not given)    1.53
8. NS(=O)(=O)c1ccc(N/N=C2\C(=O)Nc3ccc(C(=O)NCCc4c[nH]cn4)cc32)cc1    3.65
9. Cc1cc(O)cc(C)c1/C=C/c1cncc(-c2nn[nH]n2)c1    1.04
10. CS(=O)(=O)CCNCc1nc(-c2ccc3ncnc(Nc4ccc(F)c(Cl)c4)c3c2)cs1    1.78

----------
- measured.target: Discoidin domain-containing receptor 2 (Homo sapiens) (UniProt Q16832);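 note: reported figure is the mean inhibition of DDR2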
- Sequence (Q16832 whole entry, the tested form may be a part): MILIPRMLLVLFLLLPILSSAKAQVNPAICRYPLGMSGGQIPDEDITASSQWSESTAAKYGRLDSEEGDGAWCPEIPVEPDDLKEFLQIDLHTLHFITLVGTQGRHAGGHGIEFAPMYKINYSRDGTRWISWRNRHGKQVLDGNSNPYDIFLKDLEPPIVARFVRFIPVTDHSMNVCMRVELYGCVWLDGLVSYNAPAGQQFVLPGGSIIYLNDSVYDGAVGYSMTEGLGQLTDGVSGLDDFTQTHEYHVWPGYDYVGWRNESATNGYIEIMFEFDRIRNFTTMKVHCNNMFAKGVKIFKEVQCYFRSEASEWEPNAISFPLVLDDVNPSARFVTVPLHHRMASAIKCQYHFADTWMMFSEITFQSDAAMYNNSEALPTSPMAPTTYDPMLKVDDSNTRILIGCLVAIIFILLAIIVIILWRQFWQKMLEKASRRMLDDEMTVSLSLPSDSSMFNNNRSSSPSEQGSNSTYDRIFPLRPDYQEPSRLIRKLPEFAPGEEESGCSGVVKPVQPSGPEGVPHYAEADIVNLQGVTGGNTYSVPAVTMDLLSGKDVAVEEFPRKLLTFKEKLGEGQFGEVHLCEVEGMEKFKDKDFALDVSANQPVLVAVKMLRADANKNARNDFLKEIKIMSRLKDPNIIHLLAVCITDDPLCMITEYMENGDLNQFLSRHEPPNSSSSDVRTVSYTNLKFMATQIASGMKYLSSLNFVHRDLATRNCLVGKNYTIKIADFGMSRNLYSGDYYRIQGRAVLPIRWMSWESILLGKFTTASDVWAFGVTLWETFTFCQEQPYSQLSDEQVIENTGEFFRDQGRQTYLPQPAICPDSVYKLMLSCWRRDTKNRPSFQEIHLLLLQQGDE
- experimental.parameters: at 1 µM
quantity.name: inhibition

1) O=C1NC(=O)C(N2CCc3ccccc32)=C1c1ccc(Cl)cc1    8.8%
2) COc1cc(C)c(NC(=O)CN(C)C)cc1Nc1nc(Nc2cccc(F)c2C(N)=O)c2cc[nH]c2n1    0.4%
3) CS(=O)(=O)Nc1ccc(N/C=C2\C(=O)Nc3ccccc32)cc1    0.83%
4) Cn1cc(C=C2C(=O)Nc3cccnc32)c2ccccc21    4.03%
5) CCn1c(-c2nonc2N)nc2c(C#CC(C)(C)O)nc(OC[C@@H](N)c3ccccc3)cc21    12.2%
6) [O-][S+]1CCN(Cc2ccc(-c3ccc4ncnc(Nc5ccc(OCc6ccccc6)c(F)c5)c4c3)o2)CC1    0.62%
7) O=C1NC(=O)C(c2ccc(Cl)cc2)=C1Nc1ccc(Cl)c(C(=O)O)c1    2.46%
8) CCn1c(-c2nonc2N)nc2ccncc21    0.08%
9) CC1=C(C(=O)Nc2ccc3[nH]ncc3c2)C(c2ccc(F)cc2)NC(=O)N1 (configuration not stated)    0.08%
10) NC(=O)c1cccc(Nc2nccc(Nc3cccc4[nH]ncc34)n2)c1    77.6%
11) CCn1c(-c2nonc2N)nc2c(N3CCCC3)nccc21    1.39%
12) CS(=O)(=O)CCN(CC#N)Cc1ccc(-c2ccc3ncnc(Nc4ccc(OCc5cccc(F)c5)c(Cl)c4)c3c2)o1    0.75%
13) COc1ccc(-c2ccncc2)cc1C(N)=O    2.53%
14) CCCN1CCC(Oc2cc(Nc3nc(Nc4cccc(F)c4C(N)=O)c4cc[nH]c4n3)c(OC)cc2Cl)CC1    9.57%
15) Nc1nc(-c2ccccn2)c(-c2ccc3ncccc3n2)s1    -1.29%
16) N#Cc1c(NC(=O)c2cccc3ccccc23)sc2c1CCCC2    2.6%
17) O=C1Nc2ccc(C(=O)c3ccco3)cc2C1=Cc1cc(Cl)c(O)c(Cl)c1    6.8%
18) CNC(=O)c1cncc(/C=C/c2c(Cl)cccc2Cl)c1    21.2%
19) COc1ccc(COc2ccc(Cc3cnc(N)nc3N)cc2OC)cc1    8.13%
20) COc1ccc2cc(-c3c(-c4ccncc4)nc(-c4ccc([S+](C)[O-])cc4)n3C)ccc2c1 (configuration not stated)    3.95%
21) NC(=O)c1ccc(-c2nc(-c3ccccn3)c(-c3ccc4c(c3)OCO4)[nH]2)cc1    4.42%
22) Fc1cccc(COc2ccc(Nc3ncnc4sc(-c5cccs5)cc34)cc2Cl)c1    0.6%
23) Cc1nnc(-c2ccc(C)c(-c3ccc(C(=O)Nc4cccc(C#N)c4)cc3)c2)o1    1.83%
24) CC(C)=Cc1cccc2c1/C(=N/Nc1ccc(S(N)(=O)=O)cc1)C(=O)N2    7.39%
25) NCc1ccc(-c2nc(-c3ccc(Cl)c(O)c3)c(-c3ccncc3)[nH]2)cc1    9.1%
26) Fc1cccc(COc2ccc(Nc3ncnc4cc(-c5ccc[nH]5)sc34)cc2Cl)c1    -1%
27) c1cnn2ncc(-c3ccnc(Nc4ccc5c(c4)OCCO5)n3)c2c1    2.07%
28) COc1ccc(-c2coc3ncnc(N)c23)cc1    2.69%
29) CCn1c(-c2nonc2N)nc2cncc(C(=O)N3CC[C@H](N)C3)c21    1.61%
30) Nc1ncnc2occ(-c3ccc(NC(=O)Nc4cccc(C(F)(F)F)c4)cc3)c12    79.2%
31) O=C1NC(=O)C(c2cccc(Cl)c2)=C1Nc1ccc(O)c(Cl)c1    -1.13%
32) CN1CCC(C(=O)Nc2n[nH]c3nnc(-c4ccccc4)cc23)CC1    1%
33) CCN1CCC(CC(=O)Nc2n[nH]c3nc(-c4cccs4)c(Br)cc23)CC1    0.03%
34) COc1cc2ncn(-c3cc(O[C@@H](C)c4ccccc4Cl)c(C(N)=O)s3)c2cc1OC    1.58%
35) COc1cc2ncn(-c3cc(OCc4ccccc4C(F)(F)F)c(C(N)=O)s3)c2cc1OC    7.43%
36) NS(=O)(=O)c1cccc(-c2ccc3c(NC(=O)C4CC4)n[nH]c3c2)c1    -9.65%
37) O=C(Nc1n[nH]c2nc(-c3ccco3)c(Br)cc12)C1CC1    2.85%
38) CCc1cccc(NC(=O)Nc2ccc(Oc3ccc4nc(NC(=O)OC)[nH]c4c3)cc2)c1    80.2%
39) CC1=C(C(=O)Nc2ccc3[nH]ncc3c2)C(c2ccc(Cl)c(Cl)c2)CC(=O)N1 (configuration not stated)    3.67%
40) COc1cc2ncn(-c3cc(O[C@H](C)c4ccccc4Cl)c(C(N)=O)s3)c2cc1OC    12%
41) COc1cc(C=NNc2ncnc3c2cnn3-c2ccccc2)ccc1O    13.6%
42) Cc1cccc(-c2n[nH]cc2-c2ccc3ncccc3n2)n1    0.86%
